The reported numbers originate from ChEMBL document CHEMBL1133640.

biological target: Neuropeptide Y receptor type 2 (Rattus norvegicus); test: Antisecretory potency, affinity for intestinal PYY of rat jejunum by using short circuit current (SCC) method.; assay type: tissue-based
Sequence (Q9ERC0 whole entry): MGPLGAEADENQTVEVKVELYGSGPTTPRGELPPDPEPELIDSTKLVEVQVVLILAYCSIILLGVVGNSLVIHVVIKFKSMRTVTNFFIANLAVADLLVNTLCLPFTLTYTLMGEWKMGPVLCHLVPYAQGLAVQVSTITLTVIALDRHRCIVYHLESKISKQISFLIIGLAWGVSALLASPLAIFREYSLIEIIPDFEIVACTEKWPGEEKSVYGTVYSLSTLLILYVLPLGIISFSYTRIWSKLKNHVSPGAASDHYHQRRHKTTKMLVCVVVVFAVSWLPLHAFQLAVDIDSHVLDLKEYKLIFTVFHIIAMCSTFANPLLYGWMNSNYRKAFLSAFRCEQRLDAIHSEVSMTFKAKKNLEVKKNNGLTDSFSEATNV
Where a SMILES comes first, the peptide text is derived from it. [ ]: non-standard residue; d: D form. The star is where a group is joined. Argψ(CH2NH)TyrNH2 = N=C(N)NCCC[C@@H](CN[C@@H](Cc1ccc(O)cc1)C(N)=O)N*; 3Thi = N[C@@H](Cc1ccsc1)C(=O)O
TEST_READOUT: pIC50
Kindly note that pIC50 refers to -log10 of the concentration in mol/L and answer with the value alone.

COMPOUND	READOUT_VALUE
CC(=O)N[C@@H](C)C(=O)N[C@@H](CO)C(=O)N[C@@H](CC(C)C)C(=O)N[C@@H](CCCN=C(N)N)C(=O)N[C@@H](Cc1c[nH]cn1)C(=O)N[C@@H](Cc1ccc(O)cc1)C(=O)N[C@H](CN[C@@H](CC(N)=O)C(=O)N[C@@H](CC(C)C)C(=O)N[C@H](C(=O)N[C@H](C(=O)N[C@@H](CCCN=C(N)N)C(=O)N[C@@H](CCC(N)=O)C(=O)N[C@@H](CCCN=C(N)N)C(=O)N[C@@H](Cc1ccc(O)cc1)C(N)=O)[C@@H](C)O)C(C)C)CC(C)C	9.44
CC(=O)N[C@@H](C)C(=O)N[C@@H](CO)C(=O)N[C@@H](CC(C)C)C(=O)N[C@@H](CCCN=C(N)N)C(=O)N[C@@H](Cc1c[nH]cn1)C(=O)N[C@@H](Cc1ccsc1)C(=O)N[C@@H](CC(C)C)C(=O)N[C@@H](CC(N)=O)C(=O)N[C@@H](CC(C)C)C(=O)N[C@H](C(=O)N[C@H](C(=O)N[C@@H](CCCN=C(N)N)C(=O)N[C@@H](CCC(N)=O)C(=O)N[C@@H](CCCN=C(N)N)C(=O)N[C@@H](Cc1ccc(O)cc1)C(N)=O)[C@@H](C)O)C(C)C (Ac-ASLRH[3Thi]LNLVTRQRY-NH2)	9.00

-- ask Item CC(=O)N[C@@H](C)C(=O)N[C@@H](CO)C(=O)N[C@@H](CC(C)C)C(=O)N[C@@H](CCCNC(=N)N)C(=O)N[C@@H](Cc1cnc[nH]1)C(=O)N[C@@H](Cc1c[nH]c2ccccc12)C(=O)N[C@@H](CC(C)C)C(=O)N[C@@H](CC(N)=O)C(=O)N[C@@H](CC(C)C)C(=O)N[C@H](C(=O)N[C@H](C(=O)N[C@@H](CCCNC(=N)N)C(=O)N[C@@H](CCC(N)=O)C(=O)N[C@@H](CCCNC(=N)N)CN[C@@H](Cc1ccc(O)cc1)C(N)=O)[C@@H](C)O)C(C)C (Ac-ASLRHWLNLVTRQ-{Argψ(CH2NH)TyrNH2}) has what recorded pIC50?
-- reply 8.95
